Where do these numbers come from? They come from patent US20230131899A1.

Items are presented alongside their recorded remaining activity at 25 µM.
studyTarget: E. coli CsgA (Escherichia coli)
Construct: made in house; host or cells: E. coli NEB 3016 slyD::kan, pET11d
Sequence (P28307 23-151): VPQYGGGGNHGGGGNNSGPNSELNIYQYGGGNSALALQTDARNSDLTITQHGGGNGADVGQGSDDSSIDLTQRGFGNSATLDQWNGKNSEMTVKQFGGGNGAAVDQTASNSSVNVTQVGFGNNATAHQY
assayProtocol: In vitro ThioflavinT assay of CsgA aggregation (CsgA ThT Assay)
Assay type: biochemical
testConditions: read-out: CsgA ThT Assay (10 μM CsgA) % Control AUC at 1005 minutes, 25 μM (activity range), CsgA 10 μM, black plates; compound 25 μM; 1005 minutes; class symbol
Description: In vitro ThioflavinT assay to determine effects of compounds on CsgA aggregation. […] Protein concentration was assessed by the NanoDrop technique (Thermo Scientific), as is familiar to one skilled in the art. […] During the assay, plates were shaken initially for 5 seconds and subsequently for 3 seconds prior to fluorescent readings. Readings were performed every 15 minutes for up to 1005 minutes. The effect of compounds on CsgA aggregation in the assay was determined with data from 0-17 hours. […]

- compound: "O=C(O)C1CS(=O)(=O)c2c(-c3cccc(C(F)(F)F)c3)c(C(F)(F)c3cccc4ccccc34)cc(=O)n21 (stereo not shown) [Compound 081]"
  valueKind: "remaining activity at 25 µM"
  recordedResult: "11 to 31%"
- compound: "O=C(O)[C@@H]1CS(=O)(=O)c2c(-c3cccc(C(F)(F)F)c3)c(Cc3cccc4ccccc34)cc(=O)n21 (single isomer, unassigned) [Compound 010a]"
  valueKind: "remaining activity at 25 µM"
  recordedResult: "> 60%"
- compound: "Nc1c(Cc2cccc3ccccc23)c(-c2cccc(C(F)(F)F)c2)c2n(c1=O)C(C(=O)O)CN(CCCO)S2(=O)=O (stereo not shown) [Compound 097]"
  valueKind: "remaining activity at 25 µM"
  recordedResult: "> 60%"
- compound: "Cn1c(=O)c2c(nc(CCCCCN3CC(C(=O)O)n4c(c(-c5cccc(C(F)(F)F)c5)c(Cc5cccc6ccccc56)cc4=O)S3(=O)=O)n2C)n(C)c1=O (stereo not shown) [Compound 045]"
  valueKind: "remaining activity at 25 µM"
  recordedResult: "31 to 60%"
- compound: "C=CCCN1CC(C(=O)O)n2c(c(-c3cccc(C(F)(F)F)c3)c(Cc3cccc4ccccc34)cc2=O)S1(=O)=O (stereo not shown) [Compound 024]"
  valueKind: "remaining activity at 25 µM"
  recordedResult: "31 to 60%"

// recorded remaining activity at 25 µM for O=C(O)C1CN(C(CO)CO)S(=O)(=O)c2c(-c3cccc(C(F)(F)F)c3)c(Cc3cccc4ccccc34)cc(=O)n21 (stereo not shown) [Compound 106] : > 60%

// recorded remaining activity at 25 µM for O=C(O)C1CN(CCCCCO)S(=O)(=O)c2c(-c3cccc(C(F)(F)F)c3)c(Cc3cccc4ccccc34)cc(=O)n21 (stereo not shown) [Compound 086] : 31 to 60%

// recorded remaining activity at 25 µM for O=C(O)C1n2c(c(-c3cccc(C(F)(F)F)c3)c(Cc3cccc4ccccc34)nc2=O)SC12CCCC2 (stereo not shown) [Compound 053] : 31 to 60%

// recorded remaining activity at 25 µM for CCCN1CC(C(=O)O)n2c(c(-c3cccc(C(F)(F)F)c3)c(Cc3cccc4ccccc34)c(NC3CCOCC3)c2=O)S1(=O)=O (stereo not shown) [Compound 127] : 11 to 31%

// recorded remaining activity at 25 µM for O=C(O)C1CSc2c(-c3cccc(C(F)(F)F)c3)c(Cc3cccc4ccccc34)cc(=O)n21 (single isomer, unassigned) [Compound 011a] : 31 to 60%

// recorded remaining activity at 25 µM for O=C(O)C1CSc2c(-c3cccc(C(F)(F)F)c3)c(C(F)(F)c3cccc4ccccc34)cc(=O)n21 (stereo not shown) [Compound 073] : 11 to 31%

// recorded remaining activity at 25 µM for CN1CC(C(=O)O)n2c(c(-c3cccc(C(F)(F)F)c3)c(Cc3cccc4ccccc34)c(N3CCOCC3)c2=O)S1(=O)=O (stereo not shown) [Compound 079] : 31 to 60%

// recorded remaining activity at 25 µM for Cn1c(=O)c2c(ncn2CCCCCN2CC(C(=O)O)n3c(c(-c4cccc(C(F)(F)F)c4)c(Cc4cccc5ccccc45)cc3=O)S2(=O)=O)n(C)c1=O (stereo not shown) [Compound 034] : > 60%

// recorded remaining activity at 25 µM for CCCN1CC(C(=O)O)n2c(c(-c3cccc(C(F)(F)F)c3)c(Cc3cccc4ccccc34)c(C(C)C)c2=O)S1(=O)=O (stereo not shown) [Compound 125] : 11 to 31%

// recorded remaining activity at 25 µM for Nc1c(Cc2cccc3ccccc23)c(-c2cccc(C(F)(F)F)c2)c2scc(C(=O)O)n2c1=O [Compound 050] : 31 to 60%

// recorded remaining activity at 25 µM for CN1CC(C(N)=O)n2c(c(-c3cccc(C(F)(F)F)c3)c(Cc3cccc4ccccc34)cc2=O)S1(=O)=O (stereo not shown) [Compound 030] : > 60%

// recorded remaining activity at 25 µM for Nc1c(Cc2ccc(N)c3ccccc23)c(-c2cccc(C(F)(F)F)c2)c2n(c1=O)C(C(=O)O)CNS2(=O)=O (stereo not shown) [Compound 041] : > 60%

// recorded remaining activity at 25 µM for O=C(O)c1csc2c(-c3cccc(C(F)(F)F)c3)c(Cc3cccc4ccccc34)cc(=O)n12 [Compound 019] : > 60%

// recorded remaining activity at 25 µM for CN1CC(C(=O)O)n2c(c(-c3cccc(C(F)(F)F)c3)c(Cc3cccc4ccccc34)c(NC3CCOCC3)c2=O)S1(=O)=O (stereo not shown) [Compound 072] : 11 to 31%

// recorded remaining activity at 25 µM for CCCN1CC(C(=O)O)n2c(c(-c3cccc(C(F)(F)F)c3)c(Cc3cccc4ccccc34)c(CC)c2=O)S1(=O)=O (stereo not shown) [Compound 117] : 31 to 60%

// recorded remaining activity at 25 µM for CN1CC(C(=O)O)n2c(c(-c3cccc(C(F)(F)F)c3)c(Cc3cccc4ccccc34)c(N3CCNCC3)c2=O)S1(=O)=O (stereo not shown) [Compound 102] : > 60%

// recorded remaining activity at 25 µM for CCCCCN1CC(C(=O)O)n2c(c(-c3cccc(C(F)(F)F)c3)c(Cc3cccc4ccccc34)cc2=O)S1(=O)=O (single isomer, unassigned) [Compound 025a] : 31 to 60%

// recorded remaining activity at 25 µM for CCN1CC(C(=O)O)n2c(c(-c3cccc(C(F)(F)F)c3)c(Cc3cccc4ccccc34)c(N)c2=O)S1(=O)=O (stereo not shown) [Compound 092] : > 60%

// recorded remaining activity at 25 µM for Nc1c(Cc2cccc3ccccc23)c(-c2cccc(C(F)(F)F)c2)c2n(c1=O)C(C(=O)O)CS2 (single isomer, unassigned) [Compound 020a] : 11 to 31%

// recorded remaining activity at 25 µM for CCCc1sc2c(-c3cccc(C(F)(F)F)c3)c(Cc3cccc4ccccc34)cc(=O)n2c1C(=O)O [Compound 061] : 31 to 60%
